Numbers sourced from patent US20220401329A1.

# PROCEDURE_SUMMARY: Solubility of monomers in water
# Type: physicochemical
ENDPOINT: solubility

MOLECULE	MEASURED_RESULT
COC(=O)[C@@H](N)Cc1ccc(O)cc1 [L-Tyr-OMe, L-tyrosine methyl ester]	≥ 26 mM
